- ASSAY_TARGET: human TLR7 (Homo sapiens, UniProt Q9NYK1)
- Sequence (Q9NYK1 27-1049): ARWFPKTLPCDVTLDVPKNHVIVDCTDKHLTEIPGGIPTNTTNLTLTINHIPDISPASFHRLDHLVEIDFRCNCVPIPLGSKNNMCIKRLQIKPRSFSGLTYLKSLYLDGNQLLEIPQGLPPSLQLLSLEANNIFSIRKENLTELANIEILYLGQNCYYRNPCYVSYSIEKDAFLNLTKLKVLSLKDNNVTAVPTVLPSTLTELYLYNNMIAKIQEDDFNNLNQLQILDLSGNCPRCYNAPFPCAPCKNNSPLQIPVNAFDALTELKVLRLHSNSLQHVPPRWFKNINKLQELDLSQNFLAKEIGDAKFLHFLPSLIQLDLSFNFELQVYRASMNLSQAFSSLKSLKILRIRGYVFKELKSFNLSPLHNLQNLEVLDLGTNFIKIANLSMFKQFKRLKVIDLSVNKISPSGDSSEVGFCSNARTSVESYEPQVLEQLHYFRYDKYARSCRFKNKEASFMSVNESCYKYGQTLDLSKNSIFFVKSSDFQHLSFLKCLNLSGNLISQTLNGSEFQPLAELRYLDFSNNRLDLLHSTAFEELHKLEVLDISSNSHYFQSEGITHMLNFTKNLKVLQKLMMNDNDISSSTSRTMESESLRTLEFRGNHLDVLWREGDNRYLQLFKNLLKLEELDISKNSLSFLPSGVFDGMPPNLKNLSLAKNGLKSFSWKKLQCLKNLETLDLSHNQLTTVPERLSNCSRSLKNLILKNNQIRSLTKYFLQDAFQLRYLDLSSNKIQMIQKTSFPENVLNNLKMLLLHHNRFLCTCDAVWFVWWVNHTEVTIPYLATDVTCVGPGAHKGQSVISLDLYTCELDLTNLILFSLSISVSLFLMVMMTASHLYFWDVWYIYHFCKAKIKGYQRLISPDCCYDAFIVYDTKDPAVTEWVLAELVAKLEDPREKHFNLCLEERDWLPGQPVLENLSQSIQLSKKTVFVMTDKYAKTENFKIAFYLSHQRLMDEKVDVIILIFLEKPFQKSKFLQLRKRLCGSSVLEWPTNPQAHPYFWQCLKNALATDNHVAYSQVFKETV
- MEASUREMENT_PROTOCOL: Human TLR7 reporter assay (NF-kB-SEAP) in HEK293 cells
- PARTICULARS: HEK293 cells stably introduced with human TLR7 plasmid and NF-kB-SEAP reporter plasmid; cultured 20 hours with compound (1 nM-10 μM); absorbance 405 nm; read-out: Human TLR7 binding activity (EC50)
Threshold check on EC50: strictly below 200 nM is 1; on or above 200 nM is -1.

CCCCOc1nc(N)c2[nH]c(=O)n(CC3CCN(C(=O)CN(C)CCOc4cc(CC(=O)OC)ccc4OC)CC3)c2n1 | -1
CCCCOc1nc(N)c2[nH]c(=O)n(CCC3CCN(CCCN(C)CCOc4cccc(CC(=O)OC)c4)CC3)c2n1 | -1
CCCCOc1nc(N)c2[nH]c(=O)n(CCCCCN3CCN(CCN(C)Cc4cccc(CC(=O)OC)c4)CC3)c2n1 | 1
CCCCOc1nc(N)c2[nH]c(=O)n(CCC3CCN(C(=O)CN(C)CCOc4cccc(CC(=O)OC)c4)CC3)c2n1 | -1
